src = patent US20260250381A1

- TGT: T1, human TREM2 (human) (UniProt Q9NZC2)
- T1 sequence (looked up): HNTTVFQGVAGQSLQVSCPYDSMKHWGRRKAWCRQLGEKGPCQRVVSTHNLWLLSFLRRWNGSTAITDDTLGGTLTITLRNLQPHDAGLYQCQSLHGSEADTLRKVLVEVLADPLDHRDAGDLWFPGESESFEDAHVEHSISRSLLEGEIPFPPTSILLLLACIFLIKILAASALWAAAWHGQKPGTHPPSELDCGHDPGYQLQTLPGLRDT
- PROTOCOL_NOTES: 1st screen, 110 nM Ab
EXPERIMENTAL_READOUT: Binding Signal (fold over 6E7 parental antibody)
Answer format reminder: number followed by unit.

Item 6E7 variant V78 (antibody, V domains shown) VH: EVQLVQSGAEVKKPGESLKISCKGSGYRFTSYWIAWVRQMPGKGLEWMGIIYPGDSDTRYSPSFQGQVTISADKSISTAYLQWSSLKASDTAMYFCARQRTFYYDSSDYFDYWGQGTLVTVSS VL: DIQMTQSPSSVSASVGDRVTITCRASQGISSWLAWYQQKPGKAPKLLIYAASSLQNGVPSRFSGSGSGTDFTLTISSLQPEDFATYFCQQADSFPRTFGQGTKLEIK has what recorded Binding Signal (fold over 6E7 parental antibody)?
0.86 fold

Continue with 6E7 variant V90 (antibody, V domains shown) VH: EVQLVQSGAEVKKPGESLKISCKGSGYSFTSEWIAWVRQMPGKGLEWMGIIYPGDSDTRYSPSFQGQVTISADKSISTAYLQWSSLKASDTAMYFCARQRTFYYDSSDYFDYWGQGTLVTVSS VL: DIQMTQSPSSVSASVGDRVTITCRASQGISRWLAWYQQKPGKAPKLLIYAASSLQNGVPSRFSGSGSGTDFTLTISSLQPEDFATYFCQQADSFPRTFGQGTKLEIK
0.33 fold

Continue with 6E7 variant V46 (antibody, V domains shown) VH: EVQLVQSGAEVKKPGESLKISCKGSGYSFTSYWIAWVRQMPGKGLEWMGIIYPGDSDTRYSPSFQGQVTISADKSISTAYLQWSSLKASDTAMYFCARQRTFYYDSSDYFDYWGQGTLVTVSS VL: DIQMTQSPSSVSASVGDRVTITCRASQGISSWLAWYQQKPGKAPKLLIYAASTLQNGVPSRFSGSGSGTDFTLTISSLQPEDFATYFCQQADSFPRTFGQGTKLEIK
0.83 fold

Continue with 6E7 variant V32 (antibody, V domains shown) VH: EVQLVQSGAEVKKPGESLKISCKGSGYSFTSYWIAWVRQMPGKGLEWMGIIYPGDSDTRYSNSFQGQVTISADKSISTAYLQWSSLKASDTAMYFCARQRTFYYDSSDYFDYWGQGTLVTVSS VL: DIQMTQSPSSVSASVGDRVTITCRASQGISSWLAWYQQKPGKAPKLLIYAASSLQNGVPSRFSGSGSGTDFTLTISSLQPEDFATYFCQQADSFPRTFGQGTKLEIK
0.82 fold

Continue with 6E7 variant V79 (antibody, V domains shown) VH: EVQLVQSGAEVKKPGESLKISCKGSGYSFTSYWIAWVRQMPGKGLEWMGIIYPGDSDTNYSPSFQGQVTISADKSISTAYLQWSSLKASDTAMYFCARQRTFYYDSSDYFDYWGQGTLVTVSS VL: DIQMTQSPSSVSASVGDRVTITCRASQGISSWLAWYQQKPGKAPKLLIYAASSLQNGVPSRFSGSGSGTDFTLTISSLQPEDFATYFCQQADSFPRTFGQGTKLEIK
0.7 fold

Continue with 6E7 variant V45 (antibody, V domains shown) VH: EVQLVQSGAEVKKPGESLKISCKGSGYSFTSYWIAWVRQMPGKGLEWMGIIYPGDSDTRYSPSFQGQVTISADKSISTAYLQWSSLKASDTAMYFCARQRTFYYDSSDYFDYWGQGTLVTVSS VL: DIQMTQSPSSVSASVGDRVTITCRASQGISSFLAWYQQKPGKAPKLLIYAASSLQNGVPSRFSGSGSGTDFTLTISSLQPEDFATYFCQQADSFPRTFGQGTKLEIK
0.43 fold
